// growth lookup, one value per entry
Test system: SK-MEL-5 melanoma
PROCEDURE DETAILS: NCI-60 one-dose screen, 48 h (100 = growth as untreated, 0 = no growth, -100 = all killed)
TEST SETTINGS: 10 µM unless noted
About 83,000 compounds went through this panel and 20% of them were active in at least one assay; those are over-represented in the sample as a whole.

COMPOUND | growth / %
O=c1c2c3c(sc2n2c(CCl)nnc2n1Cc1ccccc1)CCCC3 | -96.1
COc1cccc(-c2nc3sccn3c2-c2ccnc(NCCCNS(=O)(=O)c3ccc(Cl)cc3)c2)c1 | 1.31
CCN(CC)C12CCCCC1(C)C(C#N)(C#N)C(C#N)=C(N)O2 (stereo not given) | 116
Cn1c(=O)c2c(ncn2CC[N+](C)(C)C)n(C)c1=O | 102
CSc1nc2sc3c(c2c(=O)n1-c1ccc(C(C)C)cc1)CCC(=O)C3 | -79.9
O=[N+]([O-])c1cccc(-c2nc3sccn3c2-c2ccnc(NCCCNS(=O)(=O)c3ccc(Br)cc3)n2)c1 | -15.6
Cn1c(=O)c2[nH]c(C(O)C(O)C(O)C(O)CO)nc2n(C)c1=O (stereo not given) | 104
Nc1cc2ccncc2c2ccccc12 | 76.9
O=C1OC2C(I)C3CC2C1C3c1ccccc1 (stereo not given) | 108
CCCCCC(=O)Oc1ccc(/C(=C(\C)c2ccccc2)c2ccc(OCCN(CC)CC)cc2)cc1 | 54.4
